- assay: qHTS Screen of the MIPE 4.0 Collection Against Ewings Sarcoma (EW8) (AID 1259255); further: nearly all actives have a fitted effect of over 35% in size
- test_parameters: EW8 Ewing sarcoma viability, CellTiter-Glo, 48 h; series mostly up to 45.8 µM
- Protocol: There is a large unmet medical need for treatments for Ewing sarcoma, a pediatric sarcoma. […] Using the NCATS developed oncology compound library called the Mechanism of Interrogation Plate (MIPE), four Ewing sarcoma cell lines were evaluated (TC32, TC71, RDES, EW8). Compounds, in a 12-point titration series, were incubated with cells for 48 hours and the read out was cell viability (CellTiter-Glo from Promega). […]
Results filed as inconclusive are left out. Activity calls are given as the source filed them. The call rests on the fitted dose curve; in most records, active means well fitted inhibition curve with a large enough effect; inconclusive means small, poorly fitted or top-dose-only effect; inactive means no such curve, though single readings can be large or run the other way.
A correct response names exactly one class from active, inactive

NCCc1cnc[nH]1 = inactive

Qu. For this compound, state the assay outcome: `Cn1c(=O)c2c(ncn2C)n(C)c1=O`
Ans. inactive

Qu. // param item: `CCC1(c2ccccc2)C(=O)NCNC1=O` ; yields the recorded call
Ans. active

Qu. What call does the record list for `C[C@](N)(Cc1ccc(O)c(O)c1)C(=O)O` ?
Ans. inactive

Qu. // outcome(item) with item = `CS(=O)(=O)CCNCc1ccc(-c2ccc3ncnc(Nc4ccc(OCc5cccc(F)c5)c(Cl)c4)c3c2)o1`
Ans. active

Qu. Check the results log: what was the call for CC(CCc1ccc(O)cc1)NCCc1ccc(O)c(O)c1 (configuration not stated) ?
Ans. active

Qu. Dear colleague, could you share the recorded outcome for `CC(C)C(=O)Nc1ccc([N+](=O)[O-])c(C(F)(F)F)c1` when you have a moment?
Ans. active

---

- Test system: CP194
- assay: qHTS profiling for inhibitors of Plasmodium falciparum proliferation (AID 504749); further: nearly all actives have a fitted effect of over 60% in size
- test_parameters: P. falciparum in erythrocytes, SYBR Green DNA, 72 h; series mostly up to 28.7 µM
Results filed as inconclusive are left out. Calls of active or inactive are those of the source. Calls follow the shape of the dose curve; as a rule, active = well fitted inhibition curve with a large enough effect; inconclusive = small, poorly fitted or top-dose-only effect; inactive = flat fitted curve, though single readings scatter.
Tick one outcome: active, inactive

Please review the entries below; each comes with its answer.
COc1ccc2[nH]cc(CCNC(C)=O)c2c1 = inactive
CCOC(=O)c1ncn2c1CN(C)C(=O)c1cc(F)ccc1-2 = inactive
NCCCCCC(=O)O = inactive
Clc1ccc2nsnc2c1NC1=NCCN1 = inactive
COc1ccccc1N1CCN(CC(O)COc2cccc3ccccc23)CC1 (stereo not drawn) = inactive

Qu. Entry `CC(C)C(=O)Nc1ccc([N+](=O)[O-])c(C(F)(F)F)c1` : call = ?
Ans. inactive

Qu. Call for entry `CC12CC3CC(C)(C1)CC(N)(C3)C2` :
Ans. inactive

Qu. GET /call?item= `COc1nc(C)nc(Cl)c1NC1=NCCN1` returns the recorded outcome of this test.
Ans. inactive

Qu. Could you please tell me the result logged for `C[C@](N)(Cc1ccc(O)c(O)c1)C(=O)O` in this assay?
Ans. inactive

Qu. # outcome recorded in this test, key = `O=C1c2c(O)ccc(O)c2C(=O)c2c(NCCNCCO)ccc(NCCNCCO)c21`
Ans. active

---

- assay: qHTS of pediatric cancer cell lines to identify multiple opportunities for drug repurposing: Primary screen for U-2 OS cells (AID 1347096); further: nearly all actives have a fitted effect of over 50% in size
- test_parameters: U-2 OS viability, CellTiter-Glo luminescence, 48 h; series mostly up to 46 µM
Results filed as inconclusive are left out. Calls of active or inactive are those of the source. Calls come from the whole dose curve; as a rule, active = well fitted cell-killing curve with a large enough effect; inconclusive = small, poorly fitted or top-dose-only effect; inactive = flat fitted curve, though single readings scatter.
recorded_endpoint: outcome

Recorded outcome, per entry:
Cc1ccc(-c2cc(C(F)(F)F)nn2-c2ccc(S(N)(=O)=O)cc2)cc1 = inactive
Nc1c2c(nc3ccccc13)CCCC2 = inactive
Nc1ccn([C@H]2CC[C@@H](CO)O2)c(=O)n1 = inactive
Clc1ccc2c(c1)C(N1CCNCC1)=Nc1ccccc1O2 = inactive
Cc1ccc(C(=O)Nc2ccc(S(=O)(=O)O)c3cc(S(=O)(=O)O)cc(S(=O)(=O)O)c23)cc1NC(=O)c1cccc(NC(=O)Nc2cccc(C(=O)Nc3cc(C(=O)Nc4ccc(S(=O)(=O)O)c5cc(S(=O)(=O)O)cc(S(=O)(=O)O)c45)ccc3C)c2)c1 = inactive

Qu. I have this molecule here, CCCNCC(O)COc1ccccc1C(=O)CCc1ccccc1 (stereo not given) , and I need its recorded outcome.
Ans. inactive

Qu. Sample `OCCN1CCN(CCCN2c3ccccc3Sc3ccc(C(F)(F)F)cc32)CC1` — what was its outcome?
Ans. inactive

Qu. // returns reported outcome for input CN1C2CCC1CC(OC(=O)C(CO)c1ccccc1)C2 (stereo not given)
Ans. inactive

Qu. Would you mind telling me what outcome value was observed for `NC(=O)OCC(COC(N)=O)c1ccccc1` ?
Ans. inactive

Qu. Return reported outcome; argument: `CN1C(C(=O)Nc2ccccn2)=C(O)c2ccccc2S1(=O)=O`
Ans. inactive

---

- Test system: SKOV3
- assay: Primary qHTS to identify gynecologic anti-cancer compounds using libraries of approved drugs and bioactive compounds (AID 1345084); further: nearly all actives have a fitted effect of over 55% in size; further: potency means the concentration at half of the fitted maximal effect
- test_parameters: Gynecologic cancer cell panel viability, ATPlite luminescence, 48 h; series mostly up to 57.5 µM
Records with an inconclusive call do not appear. Calls of active or inactive are those of the source. The call rests on the fitted dose curve; in most records, active means well fitted cell-killing curve with a large enough effect; inconclusive means small, poorly fitted or top-dose-only effect, or effect the other way; inactive means flat fitted curve, though single readings scatter.
recorded_endpoint: Potency

Nc1nnc(-c2cccc(Cl)c2Cl)c(N)n1 = inactive
CC[N+](CC)(CC)CCOc1cccc(OCC[N+](CC)(CC)CC)c1OCC[N+](CC)(CC)CC = inactive
CN1CCN(C2=Nc3cc(Cl)ccc3Nc3ccccc32)CC1 = 31.6 µM (active)

---

- experimental_target: Single-stranded DNA cytosine deaminase (Homo sapiens)
- assay: Validation qHTS assay for inhibitors of Activation Induced Cytidine Deaminase (AID): AID signal (AID 1347429)
- test_parameters: Recombinant AID, FRET ssDNA deamination with UDG, fluorescence; series mostly up to 115 µM
Activity calls are given as the source filed them. The call rests on the fitted dose curve; in most records, active means well fitted inhibition curve with a large enough effect; inconclusive means small, poorly fitted or top-dose-only effect; inactive means no such curve, though single readings can be large or run the other way.
Pick one: active, inactive

Example cases with answers are listed next.
O=c1c(O)c(-c2ccc(O)c(O)c2)oc2cc(O)cc(O)c12 = inactive
COC(=O)Nc1nc2ccc(C(=O)c3cccs3)cc2[nH]1 = inactive
Fc1ccc([C@@H]2CCNC[C@H]2COc2ccc3c(c2)OCO3)cc1 = inactive
Cc1cnc(C(=O)NCCc2ccc(S(=O)(=O)NC(=O)NC3CCCCC3)cc2)cn1 = inactive
NC(=O)NO = inactive

Now examine the next entry.
Qu. Just curious, what result did `NCCc1cnc[nH]1` get here?
Ans. inactive

---

- assay: Quantitative High-Throughput drug screen in 47 multiple myeloma cell lines against the NCATS MIPE library collection: FR4_PLB cell viability assay (AID 1918924; further: nearly all actives have a fitted effect of over 35% in size)
- test_parameters: FR4_PLB myeloma cells viability, CellTiter-Glo ATP, 48 h; series mostly up to 45.8 µM
Records with an inconclusive call do not appear. Active and inactive are the calls of the source. The call rests on the fitted dose curve; in most records, active means well fitted cell-killing curve with a large enough effect; inconclusive means small, poorly fitted or top-dose-only effect, or effect the other way; inactive means no such curve, though single readings can be large or run the other way.
Entry note: the call must match one of active, inactive

CCOC(=O)C(C)(C)Oc1ccc(Cl)cc1 = inactive
CC(C)(Oc1ccc(C2CC2(Cl)Cl)cc1)C(=O)O (stereo not given) = inactive
C[C@H]1c2cccc(O)c2C(O)=C2C(=O)[C@]3(O)C(O)=C(C(N)=O)C(=O)[C@@H](N(C)C)[C@@H]3[C@@H](O)[C@@H]21 = active

Qu. Hi team, can someone confirm the assay call for `CC1(C)O[C@H]2CC(=O)OC[C@]23[C@H]2CC[C@@]4(C)[C@H](c5ccoc5)OC(=O)[C@H]5O[C@]54[C@]2(C)C(=O)C[C@@H]13` ?
Ans. inactive

Qu. What is the recorded call for this molecule in the test? O=C(C1CCCCC1)N1CC(=O)N2CCc3ccccc3C2C1 (stereo not given)
Ans. inactive

---

- assay: Validation screen for small molecules that induce DNA re-replication in MCF 10A normal breast cells (AID 463097); further: nearly all actives have a fitted effect of over 60% in size; further: potency means the concentration at half of the fitted maximal effect
- test_parameters: MCF 10A cells, DNA re-replication phenotype imaging; series mostly up to 46.1 µM
Inconclusive results are not listed. Active and inactive are the calls of the source. Calls come from the whole dose curve; as a rule, active = well fitted activation curve with a large enough effect; inconclusive = small, poorly fitted or top-dose-only effect; inactive = flat fitted curve, though single readings scatter.
recorded_endpoint: Potency

For orientation, consider the following solved cases.
Cn1cnc2c1c(=O)[nH]c(=O)n2C = inactive
COc1nc(C)nc(Cl)c1NC1=NCCN1 = inactive
CNCCCC12CCC(c3ccccc31)c1ccccc12 = inactive
Cc1cn([C@H]2C=C[C@@H](CO)O2)c(=O)[nH]c1=O = inactive
O=C(c1ccc(OCCN2CCCCC2)cc1)c1c(-c2ccc(O)cc2)sc2cc(O)ccc12 = 11.2 µM (active)

// switching to the query molecule
Qu. What value of Potency has been recorded for this entry: `Cc1cc(C(C)(C)C)cc(C)c1CC1=NCCN1`
Ans. inactive

---

- experimental_target: Tyrosine-protein phosphatase non-receptor type substrate 1 (Homo sapiens) + Leukocyte surface antigen CD47 (Homo sapiens) (UniProt P78324+Q08722)
- Sequence (P78324 whole entry, looked up): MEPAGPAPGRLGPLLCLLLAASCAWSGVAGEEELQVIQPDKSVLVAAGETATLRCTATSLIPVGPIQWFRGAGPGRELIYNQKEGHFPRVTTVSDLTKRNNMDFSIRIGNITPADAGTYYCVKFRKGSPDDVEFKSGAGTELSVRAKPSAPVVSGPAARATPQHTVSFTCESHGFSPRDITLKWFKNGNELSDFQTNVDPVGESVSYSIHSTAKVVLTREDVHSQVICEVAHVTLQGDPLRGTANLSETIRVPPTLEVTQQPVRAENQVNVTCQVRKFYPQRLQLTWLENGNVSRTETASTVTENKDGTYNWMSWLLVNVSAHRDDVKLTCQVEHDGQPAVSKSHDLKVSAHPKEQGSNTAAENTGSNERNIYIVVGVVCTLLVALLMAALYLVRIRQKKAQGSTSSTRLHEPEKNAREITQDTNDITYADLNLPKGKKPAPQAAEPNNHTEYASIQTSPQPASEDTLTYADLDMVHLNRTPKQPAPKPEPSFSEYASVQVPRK
- Sequence (Q08722 whole entry, looked up): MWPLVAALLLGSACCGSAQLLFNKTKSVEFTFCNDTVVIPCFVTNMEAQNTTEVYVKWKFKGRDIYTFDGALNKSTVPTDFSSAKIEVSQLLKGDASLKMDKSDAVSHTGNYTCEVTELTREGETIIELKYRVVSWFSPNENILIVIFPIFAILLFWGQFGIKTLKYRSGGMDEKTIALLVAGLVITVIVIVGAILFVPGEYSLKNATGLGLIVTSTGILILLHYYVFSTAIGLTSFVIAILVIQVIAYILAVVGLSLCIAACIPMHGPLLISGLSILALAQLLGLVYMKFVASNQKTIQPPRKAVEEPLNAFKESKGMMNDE
- assay: CD47-SIRPalpha protein protein interaction - Alpha assay qHTS validation (AID 1347059);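 further: bead proximity luminescence from CD47 binding SIRPalpha after compound preincubation with SIRPalpha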
- test_parameters: AlphaScreen CD47-His/biotin-SIRPalpha binding, LOPAC; series mostly up to 38.3 µM
Inconclusive results are not listed. The source made the active and inactive calls. Calls come from the whole dose curve; as a rule, active = well fitted inhibition curve with a large enough effect; inconclusive = small, poorly fitted or top-dose-only effect; inactive = flat fitted curve, though single readings scatter.
Thanks in advance; please answer with one of these: true for active, false for inactive

Examples from the recorded data:
N[C@@H](Cc1c[nH]c2ccc(O)cc12)C(=O)O = false
CC(C)Cc1ccc(C(C)C(=O)O)cc1 (stereo unspecified) = false
COc1cc2nc(N3CCN(C(=O)C4COc5ccccc5O4)CC3)nc(N)c2cc1OC (stereo unspecified) = false
Clc1ccccc1C(c1ccccc1)(c1ccccc1)n1ccnc1 = false
NC(CO)C(=O)NNCc1ccc(O)c(O)c1O (stereo unspecified) = true

Qu. Recorded test call requested for `O=C1Cc2cc(CCN3CCN(c4nsc5ccccc45)CC3)c(Cl)cc2N1`
Ans. false

Source listed as PubChem BioAssay (NCATS).
